Hi there, I'd appreciate the recorded IC50 for every entry that follows.
Tested on: Influenza A virus
Test: Antiviral activity against Influenza A virus (A/FM/1/1947(H1N1)) infected in MDCK cells assessed as inhibition of virus-induced cytopathicity after 40 hrs
Assay type: functional, organism-based
Details: A/Fort Monmouth/1/1947(H1N1)

Item C=C(C(=O)OCc1cn(Cc2ccccc2Cl)nn1)[C@@H]1CC[C@H](C)[C@@H]2CC(=O)C(C)=C2C1 ; assay system Influenza A virus; IC50 reported as > 66.7 µg/mL

Influenza A virus assay, compound C=C(C(=O)NCc1cn(Cc2ccc(C)cc2)nn1)[C@@H]1CC[C@H](C)[C@@H]2CC(=O)C(C)=C2C1 , recorded IC50 = 17.5 µg/mL

Summary line: C=C(C(=O)NCc1cn(Cc2ccccc2Cl)nn1)[C@@H]1CC[C@H](C)[C@@H]2CC(=O)C(C)=C2C1 , Influenza A virus, reported IC50 = > 7.41 µg/mL

Record C=C(C(=O)OCc1cn(Cc2cccc(F)c2)nn1)[C@@H]1CC[C@H](C)[C@@H]2CC(=O)C(C)=C2C1 has Influenza A virus IC50 equal to > 22.2 µg/mL

Measured IC50 for this entry C=C(C(=O)NCc1cn(Cc2ccc(Cl)cc2)nn1)[C@@H]1CC[C@H](C)[C@@H]2CC(=O)C(C)=C2C1 on Influenza A virus: > 2.47 µg/mL

Record C=C(C(=O)NCc1cn(Cc2ccccc2C)nn1)[C@@H]1CC[C@H](C)[C@@H]2CC(=O)C(C)=C2C1 / Influenza A virus, IC50 recorded as > 22.2 µg/mL

Entry C=C(C(=O)NCc1cn(Cc2ccc(Cl)c(Cl)c2)nn1)[C@@H]1CC[C@H](C)[C@@H]2CC(=O)C(C)=C2C1 : IC50 on Influenza A virus = ≥ 17.2 µg/mL

IC50 of C=C(C(=O)OCc1cn(Cc2ccccc2C)nn1)[C@@H]1CC[C@H](C)[C@@H]2CC(=O)C(C)=C2C1 , assay on Influenza A virus, is > 22.2 µg/mL

----------
For each of the compounds below, state its selectivity ratio.
Experiment: Selectivity index, ratio of TC50 for MDCK cells to IC50 for Influenza B virus jifang/13/97
Type: toxicity, cell-based
Settings: dog, read-out: Selectivity Index
Write the number on its own, no unit after it.

# compound C=C(C(=O)NCc1cn(Cc2ccccc2Cl)nn1)[C@@H]1CC[C@H](C)[C@@H]2CC(=O)C(C)=C2C1 ; its selectivity ratio = 22.5

The compound listed as C=C(C(=O)NCc1cn(Cc2ccc(Cl)cc2)nn1)[C@@H]1CC[C@H](C)[C@@H]2CC(=O)C(C)=C2C1 has a reported selectivity ratio of 8.55

Measured selectivity ratio of C=C(C(=O)NCc1cn(Cc2ccc(Cl)c(Cl)c2)nn1)[C@@H]1CC[C@H](C)[C@@H]2CC(=O)C(C)=C2C1 : 9.9

Summary for this compound, C=C(C(=O)NCc1cn(C2CCCCC2)nn1)[C@@H]1CC[C@H](C)[C@@H]2CC(=O)C(C)=C2C1 : selectivity ratio is 1.95

get_value(item= C=C(C(=O)NCc1cn(Cc2ccccc2C)nn1)[C@@H]1CC[C@H](C)[C@@H]2CC(=O)C(C)=C2C1 , readout=selectivity ratio) returns 4.55

Lab note: measured selectivity ratio of C=C(C(=O)NCc1cn(Cc2ccc(C)cc2)nn1)[C@@H]1CC[C@H](C)[C@@H]2CC(=O)C(C)=C2C1 was 8.25

So for C=C(C(=O)NCc1cn(C2C=CCCC2)nn1)[C@@H]1CC[C@H](C)[C@@H]2CC(=O)C(C)=C2C1 (stereo partly specified) , the logged selectivity ratio turned out to be 7.85

Entry C=C(C(=O)OCc1cn(Cc2ccccc2F)nn1)[C@@H]1CC[C@H](C)[C@@H]2CC(=O)C(C)=C2C1 — recorded selectivity ratio = 29.7

Form field selectivity ratio, entry C=C(C(=O)NCc1cn(Cc2cccc(F)c2)nn1)[C@@H]1CC[C@H](C)[C@@H]2CC(=O)C(C)=C2C1 : 14.3

Reported selectivity ratio of C=C(C(=O)NCc1cn(Cc2cccc(Cl)c2)nn1)[C@@H]1CC[C@H](C)[C@@H]2CC(=O)C(C)=C2C1 : 3.9

selectivity ratio measured on C=C(C(=O)NCc1cn(Cc2ccc(OC)cc2)nn1)[C@@H]1CC[C@H](C)[C@@H]2CC(=O)C(C)=C2C1 = 8.25

Per the records, this compound ( C=C(C(=O)OCc1cn(Cc2ccc(F)cc2)nn1)[C@@H]1CC[C@H](C)[C@@H]2CC(=O)C(C)=C2C1 ) has selectivity ratio equal to 9.1

Data origin: ChEMBL document CHEMBL3124823
